TARGET DESC: T1, dog iRhom2 full length wild type C-terminally tagged with 3 consecutive copies of the T7 epitope (dog, UniProt Q00M95 1-827)
T1 construct: whole, on cells; also called dog-iR2-FL-WT-T7; expressed by MEF-DKO-Dog-iR2-FL-WT-T7 cells
T1 sequence: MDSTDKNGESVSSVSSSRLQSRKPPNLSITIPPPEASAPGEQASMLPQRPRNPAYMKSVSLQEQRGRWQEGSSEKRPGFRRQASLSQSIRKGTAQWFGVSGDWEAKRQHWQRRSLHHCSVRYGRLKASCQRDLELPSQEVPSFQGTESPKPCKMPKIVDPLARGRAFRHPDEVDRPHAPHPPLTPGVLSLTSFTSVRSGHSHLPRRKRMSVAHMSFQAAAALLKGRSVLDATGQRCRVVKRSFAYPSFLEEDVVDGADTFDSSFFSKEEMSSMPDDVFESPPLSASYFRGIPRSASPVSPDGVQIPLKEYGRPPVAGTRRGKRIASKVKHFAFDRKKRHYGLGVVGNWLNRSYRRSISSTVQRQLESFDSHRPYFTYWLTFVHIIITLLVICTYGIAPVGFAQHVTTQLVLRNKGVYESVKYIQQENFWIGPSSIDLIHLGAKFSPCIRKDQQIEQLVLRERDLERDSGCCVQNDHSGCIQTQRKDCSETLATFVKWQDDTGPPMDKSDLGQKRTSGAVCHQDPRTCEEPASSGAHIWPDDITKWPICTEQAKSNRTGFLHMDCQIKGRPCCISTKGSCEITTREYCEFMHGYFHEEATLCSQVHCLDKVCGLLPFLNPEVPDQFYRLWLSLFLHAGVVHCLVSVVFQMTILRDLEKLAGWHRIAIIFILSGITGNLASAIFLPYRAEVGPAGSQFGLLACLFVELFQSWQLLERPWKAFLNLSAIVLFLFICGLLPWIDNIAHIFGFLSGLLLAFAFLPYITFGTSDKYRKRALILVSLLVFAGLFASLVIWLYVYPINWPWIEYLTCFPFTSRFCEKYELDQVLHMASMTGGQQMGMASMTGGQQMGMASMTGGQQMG
METHOD SUMMARY: FACS on MEF-DKO-Dog-iR2-FL-WT-T7 cells, 3 µg/ml
Experimental: In brief, immortalized MEF-DKO-EV control cells, MEF-DKO-rhesus-iR2-FL-WT-T7 cells, MEF-DKO-cyno-iR2-FL-WT-T7 cells, MEF-DKO-dog-iR2-FL-WT-T7 cells and MEF-DKO-rabbit-iR2-FL-WT-T7 cells, as well as their respective iRhom1 counterparts, were harvested with 10 mM EDTA in PBS, washed and resuspended in FACS buffer (PBS, 3% FBS, 0.05% sodium azide), and seeded in Nunc U-bottom 96-well plates (Thermo Fisher Scientific, USA) at approximately 3×10⁵ cells per well. […]

BINDER | binding result
humanized antibody 16-B-05 (antibody, V domains shown, Tested as whole humanized antibody produced in CHO cells and detected with anti-human IgG; the general methods speak of human IgG1/Kappa; The printed LCVD reads SRESGSG where the printed cDNA encodes SRFSGSG; also called clone 16-B-05) VH: QVTLRESGPALVKPTQTLTLTCTFSGFSLSTFALGVGWIRQPPGKALEWLAHIWWDEDKYYNPALKSRLTISKDTSKNQVVLTITNMDPVDTATYYCARITTYYYGMDYWGQGTLVTVSS VL: EIVMTQSPDFQSVTPKEKVTITCRASQSIGNHLHWYQQKPDASPKLLIKYASQSISGVPSRFSGSGSGTDFTLTINSLEAEDAATYFCQQSYNWPLTFGQGTKLEIK | binds
